Value source: PubChem BioAssay

assayed target: Calcium-activated potassium channel subunit alpha-1 (Homo sapiens) + Leucine-rich repeat-containing protein 26 (Homo sapiens) (UniProt Q12791+Q2I0M4)
Sequence (Q2I0M4 whole entry, looked up, one chain of several): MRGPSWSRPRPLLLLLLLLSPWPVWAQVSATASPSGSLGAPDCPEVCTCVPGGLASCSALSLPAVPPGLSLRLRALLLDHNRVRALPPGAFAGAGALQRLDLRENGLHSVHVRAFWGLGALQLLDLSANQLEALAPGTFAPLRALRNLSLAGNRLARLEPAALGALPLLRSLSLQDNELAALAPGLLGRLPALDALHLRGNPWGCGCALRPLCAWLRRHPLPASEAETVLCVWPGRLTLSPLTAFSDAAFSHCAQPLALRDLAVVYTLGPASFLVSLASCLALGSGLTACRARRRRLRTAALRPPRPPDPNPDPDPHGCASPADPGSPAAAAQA
experiment notes: modulators of BK channel variants, profiling panel, selectivity assay, cell-based, U2OS BacMam, thallium flux, beta subunits (AID 1259406);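 note: initial slope of Thallos dye fluorescence rise after thallium is added; log ratio against the mean of 0.3% DMSO vehicle wells on the same plate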
setup conditions: F380Y/Slo1WT/gamma1, at 30 µM
Quick reference for log fold change Tl+ flux among some molecules
Lab note: jot down the number only; don't add units.

> print(dat)
                                   molecule         measured.property  test.result
1       O=C(NC(=O)N1CCCCC1)c1cc(Br)cc(Br)c1  log fold change Tl+ flux       -0.127
2  O=C(Nc1ccc(OC(F)(F)F)cc1)Nc1cc(C(F)(F)F)ccc1N1CCOCC1  log fold change Tl+ flux       0.0378
3   Cc1ccc(C(=O)Cn2cc([N+](=O)[O-])nc2C)cc1  log fold change Tl+ flux       -0.043
4  CC(=O)CSc1nc(SCC(C)=O)c2cnc(N3CCCC3)nc2n1  log fold change Tl+ flux       0.0577
5  NC(Cc1cc(I)c(Oc2ccc(O)c(I)c2)c(I)c1)C(=O)O (stereo unspecified)  log fold change Tl+ flux       0.0742

Now for the molecule whose log fold change Tl+ flux we want.
Ask: Item under review: `CC(C)(C)OC(=O)N1CCC(c2nc(-c3ccc(Cl)s3)cs2)CC1` . Reported log fold change Tl+ flux?
Result: -0.0565

====

Test system: R275C/beta2Delta
experiment notes: modulators of BK channel variants, profiling panel, selectivity assay, cell-based, U2OS BacMam, thallium flux, beta subunits (AID 1259406);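 note: initial slope of Thallos dye fluorescence rise after thallium is added; log ratio against the mean of 0.3% DMSO vehicle wells on the same plate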
setup conditions: at 30 µM
Numbered stars: 1 amine (or outer) side, 2 acyl side, 3 side chain; on linkers, the order of the positions; unused ones are H or OH. Bridge positions count the residues as written; N and C are the ends. Square brackets hold non-standard residues; d marks the D form. Peptide text beside a SMILES is read from it. I, II: the chains in the order shown. Actinocin(9to1) = Cc1c2oc3c(C)ccc(C(=O)[*:1])c3nc-2c(C(=O)[*:2])c(N)c1=O; NMeV = CN[CH](C(=O)O)C(C)C; Sar = CNCC(=O)O
measured property: log fold change Tl+ flux
Reply with just the number.

// below: answered molecules
molecule	log fold change Tl+ flux
CN1[C@@H]2CC[C@H]1CC(OC(=O)C(CO)c1ccccc1)C2 (stereo partly specified)	0.0208
O=C(Nc1ccccc1)OCc1cc(-c2ccccc2)c(C(F)(F)F)s1	0.0124
NC1(C(=O)O)CCSCC1	0.0435

Ask: Consider the molecule shown here: O=S1(=O)CC(N2CCOCC2)c2ccccc21 (stereo unspecified) What is its recorded log fold change Tl+ flux?
Result: 0.00722

Ask: What would you report for `Cc1ccc(C(=O)Cn2cc([N+](=O)[O-])nc2C)cc1` ?
Result: -0.0174

Ask: Next up: `Cc1ccccc1C=C1N=C(c2ccccc2)OC1=O`
Result: 0.0102

Ask: What do you have for `Cc1ccc(C2=C(c3ccccc3)C(=O)C(c3ccccc3)=C2c2ccc(Cl)cc2)cc1` ?
Result: 0.0554

Ask: Follow-up entry: Cc1ccc(S(=O)(=O)N2Cc3ccccc3C(C)CC23CCCCC3)cc1 (stereo unspecified)
Result: -0.0411

Ask: Same lookup for `Cc1ccc(C(=O)CC(=CC(=C(C#N)c2ccc([N+](=O)[O-])cc2)c2ccc(C)cc2)c2ccccc2)cc1` , please.
Result: -0.0508

Ask: Same again, this time with `CCCCCN=C(N)NN=Cc1c[nH]c2ccc(OC)cc12`
Result: -0.0142

Ask: Consider next the molecule Cc1c2oc3c(C)ccc(C(=O)NC4C(=O)NC(C(C)C)C(=O)N5CCCC5C(=O)N(C)CC(=O)N(C)C(C(C)C)C(=O)OC4C)c3nc-2c(C(=O)NC2C(=O)NC(C(C)C)C(=O)N3CCCC3C(=O)N(C)CC(=O)N(C)C(C(C)C)C(=O)OC2C)c(N)c1=O (stereo unspecified) (I: TVP[Sar][NMeV] / II: TVP[Sar][NMeV]; ester I:1-I:C, II:1-II:C; linker I:N-II:N via Actinocin(9to1); configuration not given here) in the same way.
Result: -0.00324

====

experiment notes: LFS_MB_P medulloblastoma growth inhibition, cell-based, chromothripsis tumors, cisplatin or BGB combos (AID 1671449);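 note: cells exposed for 96 hours; 0% = vehicle DMSO and 100% = killing by high DMSO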
setup conditions: LFS_MB_P medulloblastoma cells, measured here: combination with BGB IC40, at 0.005 µM
measured property: inhibition

Ask: Record request: inhibition value, item `O=c1[nH]c(-c2ccc(C(F)(F)F)cc2)nc2c1CSCC2`
Result: 12.4%

Ask: Check `O=c1ncccn1[C@@H]1O[C@H](CO)[C@@H](O)[C@H]1O` too.
Result: -15.6%

Ask: What do you get for NC(=O)c1ncn(C2OC(CO)C(O)C2O)n1 (stereo not given) ?
Result: 25.4%

Ask: How about this molecule: `CC(C)N=c1cc2n(-c3ccc(Cl)cc3)c3ccccc3nc-2cc1Nc1ccc(Cl)cc1`
Result: -22.3%

Ask: Please answer likewise for `O=c1cc(-c2cccc3c2Sc2ccccc2S3)oc(N2CCOCC2)c1`
Result: -15.3%

====

experiment notes: sensitizers of A549 cells to miR-34 induction, primary screen, imaging, A549 dox-inducible miR-34, nuclei and caspase counts (AID 1347080)
setup conditions: A549 miR-34 inducible, Hoechst nuclei count, 48 h; measured here: total cells without miR-34 induction
Give label 1 when the value for cell count is at least 10000. Give label 0 when it is less.

compound	category label
CCCCCC(=O)O[C@]1(C(C)=O)CCC2C3CCC4=CC(=O)CC[C@]4(C)C3CC[C@@]21C (stereo not given in full)	label 0

Ask: Is the recorded value of cell count equal to or greater than 10000 for this compound? CCCCCOC(=O)Nc1nc(=O)n(C2O[C@H](C)[C@@H](O)[C@H]2O)cc1F (stereo not given in full)
Result: label 0

Ask: Request: CO/N=C(/C(=O)NC1C(=O)N2C(C(=O)OC(C)OC(C)=O)=C(COC(N)=O)CSC12)c1ccco1 (stereo not given)
Result: label 1

Ask: Here is the next compound: `Cc1ccc(S(=O)(=O)NCl)cc1`
Result: label 0

Ask: Another compound: `CCN(CC)CCOc1ccc(Nc2ncc3cc(-c4c(Cl)cccc4Cl)c(=O)n(C)c3n2)cc1`
Result: label 0

====

Entries and their luciferase signal values follow.
assayed target: Mitogen-activated protein kinase 7 (Homo sapiens)
experiment notes: ERK5 transactivation activators in reporter cells, primary screen, cell-based, HTS (AID 1508626);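 note: luciferase driven by Gal4-ERK5 fusion binding five Gal4 sites before minimal TATA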
setup conditions: HeLa Gal4-ERK5 transactivation, 18 h, at 5 µM, stronger effect = higher value
Calls of active or inactive are those of the source.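 Rule for the calls: active = luciferase signal above three times the same-plate solvent-only control wells; inactive = the rest.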

Solved entries:
compound	assayed target	test result
O=c1cc(-c2ccccc2)oc2cccc(O)c12	Mitogen-activated protein kinase 7 (Homo sapiens)	104 AU (inactive)
COc1cc(O)c(C(=O)/C=C/c2ccc(O)c(OC)c2)c(OC)c1	Mitogen-activated protein kinase 7 (Homo sapiens)	60 AU (inactive)
S=c1ccss1	Mitogen-activated protein kinase 7 (Homo sapiens)	52 AU (inactive)

Now take the following compound into account.
Ask: Entry CC(=O)Oc1cc(C)c2c(c1C(OC(C)=O)OC(C)=O)Oc1c(c(C)c(OC(C)=O)c3c1C(OC(C)=O)OC3=O)OC2=O (centres undefined) : reported luciferase signal = ?
Result: 124 AU (inactive)

====

Tested on: F380Y/beta2Delta
experiment notes: modulators of BK channel variants, profiling panel, selectivity assay, cell-based, U2OS BacMam, thallium flux, beta subunits (AID 1259406);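 note: initial slope of Thallos dye fluorescence rise after thallium is added; log ratio against the mean of 0.3% DMSO vehicle wells on the same plate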
setup conditions: at 30 µM
Calls of active or inactive are those of the source.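 How the source made its calls: active means thallium flux through the channel raised or lowered by more than 3 SD from vehicle-only wells, actives on both sides; inactive means the rest.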
Give your call using only these classes: yes (1) = active, no (0) = inactive

compound	category label
CCOC(=O)c1ccc(-n2sccc2=O)cc1	no (0)

Ask: GET /call?item= `O=C(NC(=O)C12CC3CC(CC(C3)C1)C2)Nc1ccc(Cl)cc1` returns the recorded outcome of this test.
Result: no (0)

Ask: Also need `CN(C)C=NC(=O)c1sc(S(C)(=O)=O)c2c1CCC=C2` , thanks.
Result: no (0)

====

assayed target: L-lactate dehydrogenase (Plasmodium falciparum (isolate CDC / Honduras))
experiment notes: PfLDH activity inhibition – cell lysate, 3D7 strain, counter-screen for P. falciparum growth inhibition project (AID 2304);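 note: 0% = vehicle and 100% = reference inhibitor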
setup conditions: P. falciparum 3D7 crude extract, LDH APAD/NBT absorbance; at 2 µM; stronger effect = higher value
The entries below come with measured inhibition values attached.
Reply with just the number (in %).

Worked cases, answers included:
> print(dat)
                                   compound  test.result
1               Cc1cccc(-c2c(C)nc(N)nc2N)c1           -6
2     COc1cc(Cc2cnc(N)nc2N)cc(OCCCCC#N)c1OC            8
3  O=C(O)c1ccc(-c2cnc3ccc(NC4CCC(O)CC4)nn23)cc1 (centres undefined)            3

Ask: Query (compound): `CCCN1CCN(CCNC(=O)c2cccc(Nc3nccc(Nc4ccc(Oc5ccccc5)cc4)n3)c2)CC1` ; field requested: inhibition
Result: -7

Ask: Request: CCOC(=O)c1c(NC(NC(=O)c2ccc(C(C)(C)C)cc2)C(Cl)(Cl)Cl)sc2c1CCCC2 (centres undefined)
Result: -3

Ask: Another compound: `Cc1ccc2nc(C)cc(NN=Cc3cccc([N+](=O)[O-])c3)c2c1`
Result: 1

Ask: `Cc1cccc(-c2cccc(CNc3nc(NCCc4ccc(O)cc4)nc(N4CCNCC4)n3)c2)c1` ?
Result: 0

Ask: And the next one, `CN(C)Cc1cccc(-c2ccc(NC(=O)c3ccc4c(=O)n(Cc5cnn(C)c5)cnc4c3)cc2)c1` ?
Result: 2

Ask: Try this compound too: `CN(C(=O)C(C)(C)Oc1ccc(Cl)cc1)C1CCN(CCCCCNC(=O)/C=C/c2ccc(Cl)c(Cl)c2)CC1`
Result: 0

Ask: Also, `CC(C)(CNCc1ccc(OC(F)(F)F)cc1)c1nc(-c2ccc(Cl)c(O)c2)c(-c2ccncc2)[nH]1` please.
Result: -2
